# measured.on: T1, TROP2 (UniProt P09758 27-323, limits assumed)
# T1 sequence (looked up): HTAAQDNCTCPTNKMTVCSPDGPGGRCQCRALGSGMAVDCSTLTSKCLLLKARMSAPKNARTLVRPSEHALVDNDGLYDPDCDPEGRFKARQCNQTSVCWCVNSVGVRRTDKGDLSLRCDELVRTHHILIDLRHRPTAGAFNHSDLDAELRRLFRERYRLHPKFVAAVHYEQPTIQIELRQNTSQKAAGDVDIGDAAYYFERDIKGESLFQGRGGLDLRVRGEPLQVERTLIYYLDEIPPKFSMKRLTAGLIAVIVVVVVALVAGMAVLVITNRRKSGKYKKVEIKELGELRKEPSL
# assay.notes: cell-based or functional assay
quantity: Relative activity (%), inhibition of BxPC-3 cell proliferation
Supply the numeric figure in %, leaving out any unit text.

hRS7-CPD3-NC-D4 (antibody, human IgG1, kappa, V domains shown, linker-drug CPD3 on cysteines of reduced interchain disulfides; label D4) VH: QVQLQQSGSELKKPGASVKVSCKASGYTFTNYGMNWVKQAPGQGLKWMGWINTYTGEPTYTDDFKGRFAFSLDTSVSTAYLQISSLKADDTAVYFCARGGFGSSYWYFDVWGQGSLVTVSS VL: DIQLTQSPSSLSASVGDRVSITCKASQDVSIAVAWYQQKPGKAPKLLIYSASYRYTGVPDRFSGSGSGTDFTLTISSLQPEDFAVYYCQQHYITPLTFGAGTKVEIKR: 156
hRS7-CPD2-NC-D4 (antibody, human IgG1, kappa, V domains shown, linker-drug CPD2 on cysteines of reduced interchain disulfides; label D4) VH: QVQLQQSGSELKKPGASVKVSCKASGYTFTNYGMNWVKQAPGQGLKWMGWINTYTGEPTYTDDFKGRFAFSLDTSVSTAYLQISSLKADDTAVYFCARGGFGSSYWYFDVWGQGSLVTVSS VL: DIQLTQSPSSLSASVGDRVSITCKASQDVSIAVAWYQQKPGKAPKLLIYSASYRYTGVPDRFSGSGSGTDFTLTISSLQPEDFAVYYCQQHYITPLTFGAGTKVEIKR: 147
hRS7-CPD5-NC-D4 (antibody, human IgG1, kappa, V domains shown, linker-drug CPD5 on cysteines of reduced interchain disulfides; label D4) VH: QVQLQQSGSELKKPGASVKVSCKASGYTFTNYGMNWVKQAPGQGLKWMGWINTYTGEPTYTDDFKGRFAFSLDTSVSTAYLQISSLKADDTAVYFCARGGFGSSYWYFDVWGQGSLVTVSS VL: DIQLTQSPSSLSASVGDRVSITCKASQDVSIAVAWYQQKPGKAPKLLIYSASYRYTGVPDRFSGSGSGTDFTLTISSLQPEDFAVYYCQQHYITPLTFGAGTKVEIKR: 79.6

Look up Relative activity (%), inhibition of BxPC-3 cell proliferation of hRS7-CPD4-NC-D4 (antibody, human IgG1, kappa, V domains shown, linker-drug CPD4 on cysteines of reduced interchain disulfides; label D4) VH: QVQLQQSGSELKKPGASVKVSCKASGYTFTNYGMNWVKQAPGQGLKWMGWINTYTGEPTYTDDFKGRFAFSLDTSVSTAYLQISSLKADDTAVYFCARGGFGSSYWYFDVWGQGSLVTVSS VL: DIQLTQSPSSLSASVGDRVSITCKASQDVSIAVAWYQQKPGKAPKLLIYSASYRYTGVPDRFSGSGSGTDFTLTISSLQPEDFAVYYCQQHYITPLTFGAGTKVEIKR and report it. 89.6

Look up Relative activity (%), inhibition of BxPC-3 cell proliferation of DXD (deruxtecan)-conjugated sacituzumab (hRS7-DXD) (antibody, human IgG1, kappa, V domains shown, deruxtecan (DXD) on cysteines of reduced interchain disulfides; label D4) VH: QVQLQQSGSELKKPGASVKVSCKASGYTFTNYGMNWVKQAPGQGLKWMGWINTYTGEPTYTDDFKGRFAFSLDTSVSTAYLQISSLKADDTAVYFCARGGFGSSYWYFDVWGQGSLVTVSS VL: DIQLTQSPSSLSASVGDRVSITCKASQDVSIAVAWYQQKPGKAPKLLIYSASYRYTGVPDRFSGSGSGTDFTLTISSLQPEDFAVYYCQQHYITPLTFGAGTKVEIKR and report it. 100

Look up Relative activity (%), inhibition of BxPC-3 cell proliferation of hRS7-CPD6-NC-D4 (antibody, human IgG1, kappa, V domains shown, linker-drug CPD6 on cysteines of reduced interchain disulfides; label D4) VH: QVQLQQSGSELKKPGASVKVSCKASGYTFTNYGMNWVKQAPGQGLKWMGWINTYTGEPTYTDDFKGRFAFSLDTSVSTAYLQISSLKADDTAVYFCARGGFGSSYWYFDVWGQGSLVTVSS VL: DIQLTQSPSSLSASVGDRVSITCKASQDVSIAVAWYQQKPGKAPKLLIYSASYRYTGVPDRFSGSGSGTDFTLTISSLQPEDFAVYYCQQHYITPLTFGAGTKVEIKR and report it. 111

Look up Relative activity (%), inhibition of BxPC-3 cell proliferation of hRS7-CPD1-NC-D4 (antibody, human IgG1, kappa, V domains shown, linker-drug CPD1 on cysteines of reduced interchain disulfides; label D4) VH: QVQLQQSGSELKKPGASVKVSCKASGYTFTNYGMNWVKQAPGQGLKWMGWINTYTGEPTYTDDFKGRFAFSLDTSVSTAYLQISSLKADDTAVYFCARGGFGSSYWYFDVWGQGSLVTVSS VL: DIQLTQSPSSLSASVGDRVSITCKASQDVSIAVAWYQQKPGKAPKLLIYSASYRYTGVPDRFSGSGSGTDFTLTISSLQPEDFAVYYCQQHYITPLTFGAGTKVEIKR and report it. 103
